Assay: Selectivity index, ratio of CC50 for human HepG2A16 cells to IC50 for chloroquine/cycloguanil-resistant Plasmodium falciparum FCR3
Assay type: toxicity
Settings: read-out: Ratio CC50/IC50
test_readout: selectivity ratio

[[record]]
smiles_notation = "Cc1c(C)[n+]([O-])c2cc(Cl)ccc2[n+]1[O-]"
test_readout = "selectivity ratio"
observed = "< 2.28"

[[record]]
smiles_notation = "Cc1c(/C=N/Nc2ccccc2)[n+]([O-])c2ccccc2[n+]1[O-]"
test_readout = "selectivity ratio"
observed = "< 0.35"

[[record]]
smiles_notation = "COc1ccc2c(c1)[n+]([O-])c(C)c(C)[n+]2[O-]"
test_readout = "selectivity ratio"
observed = "< 7.44"


Look up and report measured selectivity ratio for this entry: Cc1c(/C=N/NC(=O)c2ccncc2)[n+]([O-])c2ccccc2[n+]1[O-] < 0.9

Indicate the recorded selectivity ratio value for this compound: Cc1c(/C=N/Nc2ccc(Cl)c(Cl)c2)[n+]([O-])c2ccccc2[n+]1[O-] 6.32

Tell us which selectivity ratio value is on record for Cc1c(/C=N/Nc2ccc(C(=O)O)cc2)[n+]([O-])c2ccccc2[n+]1[O-] < 3.72

Item COc1ccc2c(c1)[n+]([O-])c(/C=N/Nc1c(Cl)cc(Cl)cc1Cl)c(C)[n+]2[O-] : provide selectivity ratio < 2.09

Recall and state the measured selectivity ratio for Cc1c(C)[n+]([O-])c2ccccc2[n+]1[O-] . < 3.21

Provide selectivity ratio value for the following compound: Cc1c(/C=N/Nc2cccc(Cl)c2)[n+]([O-])c2ccccc2[n+]1[O-] < 0.47

Please indicate selectivity ratio recorded for COc1ccc(C(=O)N/N=C/c2c(C)[n+]([O-])c3ccccc3[n+]2[O-])cc1 2.22
